What follows is a collection of IC50 values obtained with PDE4D2 (Homo sapiens).
Sequence (Q08499 303-809 limits assumed): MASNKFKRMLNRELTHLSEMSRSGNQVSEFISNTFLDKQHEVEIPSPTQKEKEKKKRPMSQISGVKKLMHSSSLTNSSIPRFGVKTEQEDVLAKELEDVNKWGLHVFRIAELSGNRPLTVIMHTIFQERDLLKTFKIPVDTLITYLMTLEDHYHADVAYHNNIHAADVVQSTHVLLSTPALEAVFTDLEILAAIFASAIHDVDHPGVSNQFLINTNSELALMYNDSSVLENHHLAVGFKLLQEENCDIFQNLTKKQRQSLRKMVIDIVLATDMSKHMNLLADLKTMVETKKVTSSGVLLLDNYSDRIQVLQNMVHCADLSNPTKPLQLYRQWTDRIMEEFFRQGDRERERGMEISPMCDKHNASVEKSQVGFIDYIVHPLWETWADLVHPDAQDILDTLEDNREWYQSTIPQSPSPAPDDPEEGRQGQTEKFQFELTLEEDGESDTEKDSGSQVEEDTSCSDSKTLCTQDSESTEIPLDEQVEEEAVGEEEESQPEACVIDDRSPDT
quantityName: IC50 (nM)

Known results for molecules:
molecule: [O-][S@+]1CCc2nc(N3CCc4cc5ncoc5cc4C3)nc(NC3(CO)CCC3)c21
readoutUnits: nM
measValue: 4.81
--
molecule: Cn1c2c(c3ccc(Cl)cc3c1=O)CCN(c1nc3c(c(NC4(CO)CCC4)n1)[S+]([O-])CC3)C2 (stereo not shown)
readoutUnits: nM
measValue: 2.04
--
molecule: COc1ccc2sc3c(c2c1)CCN(c1nc2c(c(NC4(CO)CCC4)n1)[S+]([O-])CC2)C3 (stereo not shown)
readoutUnits: nM
measValue: 0.764

[P] COc1nc2cc(Cl)ccc2c2c1CN(c1nc3c(c(NC4(CO)CCC4)n1)[S+]([O-])CC3)CC2 (stereo not shown)
[Q] [O-][S@+]1CCc2nc(N3CCc4c(cnc5cc(Cl)ccc45)C3)nc(NC3(CO)CCC3)c21
Query :: // pick min by IC50: P , Q Please identify the chosen entry by its label.
Result :: Q
